TGT: T1, BAM1 (BARELY ANY MERISTEM 1) ectodomain (Arabidopsis, UniProt O49545 20-637)
T1 construct: BAM1 LRR receptor kinase ectodomain, Arabidopsis, residues 20-637, AT5G65700; codon optimised; secreted with an azurocidin or Drosophila BiP signal peptide; also called BAM1 extracellular domain; BAM1 LRR ectodomain; source: Trichoplusia ni Tnao38 cells (baculovirus), secreted, purified (Ni2+, Strep-Tactin, TEV cleavage, second Ni2+, SEC)
T1 sequence (looked up): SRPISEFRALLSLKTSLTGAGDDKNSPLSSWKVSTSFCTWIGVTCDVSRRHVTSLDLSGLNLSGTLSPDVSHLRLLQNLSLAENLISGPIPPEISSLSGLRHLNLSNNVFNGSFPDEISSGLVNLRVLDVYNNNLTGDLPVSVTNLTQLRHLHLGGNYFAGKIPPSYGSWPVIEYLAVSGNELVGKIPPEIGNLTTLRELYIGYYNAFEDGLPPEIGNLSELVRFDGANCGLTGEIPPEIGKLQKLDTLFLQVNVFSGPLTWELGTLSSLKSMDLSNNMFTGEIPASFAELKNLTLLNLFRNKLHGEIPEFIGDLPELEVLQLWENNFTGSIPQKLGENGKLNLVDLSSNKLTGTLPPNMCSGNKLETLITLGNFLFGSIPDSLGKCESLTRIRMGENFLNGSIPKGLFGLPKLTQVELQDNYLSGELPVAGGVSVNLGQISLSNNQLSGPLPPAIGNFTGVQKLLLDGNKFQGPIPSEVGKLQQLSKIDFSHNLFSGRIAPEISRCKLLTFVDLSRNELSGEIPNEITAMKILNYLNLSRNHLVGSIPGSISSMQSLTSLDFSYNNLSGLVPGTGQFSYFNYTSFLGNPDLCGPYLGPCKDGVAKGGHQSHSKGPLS
TEST_SUMMARY: ITC; peptide (75 to 600 µM) injected into 10 to 30 µM HSL1 or BAM1 ectodomain in the cell; 25 °C; 20 mM sodium citrate pH 5.0, 150 mM NaCl; N fitted to 1
EXPERIMENTAL_SETUP: both partners purified
Square brackets hold non-standard residues; d marks the D form. Ends that are not written are not given here. Hyp = O=C(O)[C@@H]1C[C@@H](O)CN1
The following binders are listed with their measured Kd values.
// note: answer is a bare numeric in µM

Report Kd for RLV[Hyp]SG[Hyp]NPLHN (peptide, UniProt Q9FZE4 109-120, looked up, CLE9 mature dodecapeptide, AT1G26600; printed residues R109, L110, V111, Hyp112, Ser113, Hyp115, Asn116; also called wild-type CLE9 peptide) [CLE9 mature peptide] please.
0.1

Report Kd for RLPPSGPNPLHN (peptide, UniProt Q9FZE4 109-120, looked up, CLE9 mature dodecapeptide with Val111 changed to Pro; also called replacement of the third Val by a Pro) [CLE9^V111P peptide] please.
3
